- System: Tumor cells B16F10
- Assay Notes: Anti-tumor effect in B16F10 tumor-bearing mice (alone and combined with PD-1 monoclonal antibody)
- Format: in vivo
- Test Parameters: female C57BL/6 mice; by tumor weight vs control group; compounds 150 mg/kg orally every day; PD-1 monoclonal antibody 10 mg/kg intraperitoneally every three days; combination: both
Measure Name: Tumor inhibition rate B16F10 (%)
Numbers only here, please. The scale is %.

Name the recorded Tumor inhibition rate B16F10 for CN(C)CC1C(=O)O[C@@H]2C[C@@]3(C)CC[C@@H](O)[C@]4(CO4)[C@@H]3C[C@H]12.O=C(O)/C=C/C(=O)O (stereo partly shown) [Control compound 7, reference compound] .
41

# get_value(readout='Tumor inhibition rate B16F10', item= CN(CCO)CC1C(=O)O[C@@H]2C[C@@]3(C)CC[C@@H](O)[C@]4(CO4)[C@@H]3C[C@H]12.O=C(O)/C=C/C(=O)O (stereo partly shown) )
23

Field request: Tumor inhibition rate B16F10 | item: C[C@]12CC[C@@H](O)[C@]3(CO3)[C@@H]1C[C@@H]1C(CN(CCO)CCO)C(=O)O[C@@H]1C2.O=C(O)/C=C/C(=O)O (stereo partly shown)
24

# Tumor inhibition rate B16F10 lookup, item CN(CCCO)CC1C(=O)O[C@@H]2C[C@@]3(C)CC[C@@H](O)[C@]4(CO4)[C@@H]3C[C@H]12.O=C(O)/C=C/C(=O)O (stereo partly shown)
31
